- target_entity: TLR7 (Homo sapiens, UniProt Q9NYK1)
- Sequence (Q9NYK1 27-1049): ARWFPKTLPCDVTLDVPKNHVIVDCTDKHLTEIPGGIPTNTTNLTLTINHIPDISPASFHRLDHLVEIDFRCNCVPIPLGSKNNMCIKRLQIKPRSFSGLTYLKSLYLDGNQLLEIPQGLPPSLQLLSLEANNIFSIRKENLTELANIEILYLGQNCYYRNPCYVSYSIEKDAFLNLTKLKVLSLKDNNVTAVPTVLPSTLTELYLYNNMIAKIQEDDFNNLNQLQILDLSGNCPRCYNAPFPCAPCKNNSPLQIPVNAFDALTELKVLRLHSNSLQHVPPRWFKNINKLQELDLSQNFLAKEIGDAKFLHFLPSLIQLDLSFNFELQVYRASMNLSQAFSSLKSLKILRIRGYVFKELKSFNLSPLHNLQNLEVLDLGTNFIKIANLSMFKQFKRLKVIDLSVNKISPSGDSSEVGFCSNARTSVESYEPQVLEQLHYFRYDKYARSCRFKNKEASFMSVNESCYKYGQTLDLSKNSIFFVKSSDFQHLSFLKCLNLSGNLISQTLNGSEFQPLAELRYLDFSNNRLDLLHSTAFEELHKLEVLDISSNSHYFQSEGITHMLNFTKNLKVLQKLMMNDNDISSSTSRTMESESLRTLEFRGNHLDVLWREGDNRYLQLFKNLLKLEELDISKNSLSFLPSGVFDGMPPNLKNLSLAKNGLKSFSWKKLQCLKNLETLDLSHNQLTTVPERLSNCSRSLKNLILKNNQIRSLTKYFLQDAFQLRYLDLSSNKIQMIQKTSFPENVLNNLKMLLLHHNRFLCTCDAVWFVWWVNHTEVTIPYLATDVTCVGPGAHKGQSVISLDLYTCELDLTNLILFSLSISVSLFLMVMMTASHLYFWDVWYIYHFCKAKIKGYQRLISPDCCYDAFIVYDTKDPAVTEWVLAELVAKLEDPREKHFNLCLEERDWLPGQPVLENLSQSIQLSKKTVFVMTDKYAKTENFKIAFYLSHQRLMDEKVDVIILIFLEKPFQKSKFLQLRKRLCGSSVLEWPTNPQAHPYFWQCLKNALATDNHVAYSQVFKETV
- assay_details: HEK Cell Assay (TLR7/NFKb HEK reporter cells, Steady-Glo)
- measurement_context: compound 30 min, then R*48 agonist 5 hours, Steady-Glo readout, read-out: Potency
value_kind: IC50

Task item: I have this compound here, C[C@H]1C[C@@H](NC(=O)CN(C)C)C[C@H](c2ccc(C#N)c3nccnc23)C1 (racemic) [Compound 132] , and I need its recorded IC50.
Reply: 1000 to 20000 nM

Task item: I have this compound here, C[C@@H]1C[C@H](c2ccc(C#N)c3ncccc23)CN(CC(=O)Nc2cnn(C)c2)C1 (relative stereo) [Compound 76] , and I need its recorded IC50.
Reply: > 20000 nM

Task item: I have this compound here, C[C@@H]1C[C@H](N)C[C@H](c2ccc(C(F)(F)F)c3ncccc23)C1 [Compound 136] , and I need its recorded IC50.
Reply: < 1000 nM

Task item: I have this compound here, C[C@@H]1C[C@@H](c2ccc(C#N)c3ncccc23)CN(CC(=O)NCCN2CCN(C)CC2)C1 (relative stereo) [Compound 73] , and I need its recorded IC50.
Reply: 1000 to 20000 nM

Task item: I have this compound here, C[C@H]1C[C@@H](N)C[C@@H](c2ccc(C(F)(F)F)c3nccnc23)C1 [Compound 139] , and I need its recorded IC50.
Reply: < 1000 nM

Task item: I have this compound here, C[C@@H]1C[C@H](N)C[C@@H](c2ccc(C(F)(F)F)c3ncccc23)C1 [Compound 138] , and I need its recorded IC50.
Reply: < 1000 nM

Task item: I have this compound here, CC(=O)N1C[C@@H](C)C[C@H](c2ccc(C(F)(F)F)c3ncccc23)C1 (relative stereo) [Compound 9] , and I need its recorded IC50.
Reply: > 20000 nM

Task item: I have this compound here, Cc1ccc([C@@H]2C[C@H](C)CN(C(=O)CC3CCN(C)CC3)C2)c2cccnc12 [Compound 82] , and I need its recorded IC50.
Reply: 1000 to 20000 nM

Task item: I have this compound here, C[C@@H]1C[C@H](c2ccc(C#N)c3ncccc23)CN(C(=O)C[C@@H]2[C@H]3CN(C)C[C@@H]23)C1 [Compound 78] , and I need its recorded IC50.
Reply: < 1000 nM

Task item: I have this compound here, C[C@@H]1C[C@@H](c2ccc(C#N)c3ncccc23)CN(C(=O)C2CN(C)C2)C1 (relative stereo) [Compound 32] , and I need its recorded IC50.
Reply: 1000 to 20000 nM

Task item: I have this compound here, C[C@@H]1C[C@@H](c2ccc(C#N)c3ncccc23)CN(C(=O)CC2CCN(C)CC2)C1 [Compound 54] , and I need its recorded IC50.
Reply: < 1000 nM

Task item: I have this compound here, C[C@@H]1C[C@H](N)C[C@@H](c2ccc(C#N)c3nccnc23)C1 [Compound 124] , and I need its recorded IC50.
Reply: > 20000 nM

Task item: I have this compound here, C[C@@H]1C[C@H](N)C[C@H](c2ccc(C(F)(F)F)c3nccnc23)C1 [Compound 142] , and I need its recorded IC50.
Reply: < 1000 nM

Task item: I have this compound here, CC1CC(c2ccc(C(F)(F)F)c3ncccc23)CN(C(=O)CC2CC3CCC(C2)N3C)C1 (stereo not drawn) [Compound 18] , and I need its recorded IC50.
Reply: < 1000 nM

Task item: I have this compound here, CC1CC(c2ccc(C#N)c3ncccc23)CN(CC2CCN(C)CC2)C1 (stereo not drawn) [Compound 52] , and I need its recorded IC50.
Reply: < 1000 nM
